target under test: p38a/MK2 (Homo sapiens (Human), UniProt P49137+Q16539)
Sequence (P49137 46-400): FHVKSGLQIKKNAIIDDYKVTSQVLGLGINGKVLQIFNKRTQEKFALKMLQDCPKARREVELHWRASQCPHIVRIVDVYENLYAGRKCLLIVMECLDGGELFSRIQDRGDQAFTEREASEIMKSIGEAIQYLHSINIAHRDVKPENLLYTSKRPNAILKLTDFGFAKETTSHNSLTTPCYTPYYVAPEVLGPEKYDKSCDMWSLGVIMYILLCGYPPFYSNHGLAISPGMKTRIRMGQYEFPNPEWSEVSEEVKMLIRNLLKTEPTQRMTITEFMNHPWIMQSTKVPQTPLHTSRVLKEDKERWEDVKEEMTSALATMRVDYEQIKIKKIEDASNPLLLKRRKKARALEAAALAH
Sequence (Q16539 whole entry): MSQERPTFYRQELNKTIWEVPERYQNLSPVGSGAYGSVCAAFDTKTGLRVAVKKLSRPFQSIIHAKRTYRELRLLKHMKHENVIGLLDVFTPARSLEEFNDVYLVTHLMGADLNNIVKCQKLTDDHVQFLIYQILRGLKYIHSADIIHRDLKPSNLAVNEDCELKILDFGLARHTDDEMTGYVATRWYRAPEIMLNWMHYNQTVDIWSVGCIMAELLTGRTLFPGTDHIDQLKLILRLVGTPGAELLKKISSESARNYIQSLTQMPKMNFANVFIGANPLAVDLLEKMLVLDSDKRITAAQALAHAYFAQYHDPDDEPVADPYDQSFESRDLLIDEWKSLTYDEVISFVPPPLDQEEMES
protocol details: p38a/MK2 biochemical assay: activation of MK2 by p38, FITC-HSP27 peptide phosphorylation (IMAP FP)
cond: 10-point 1:3 dilution, top dose 1 μM; 60 pM active p38a, 1 nM inactive MK2, 10 μM ATP, 2 h incubation; read-out: p38a/MK2 (1 μM) Enzyme pIC50 (converted)
# reported IC50; entries follow
measured metric: IC50 (nM)

Cc1cnc(-n2ccc(C(C)(C)O)n2)c(C)c1-n1c(C)cc(OCc2ncc(F)cc2F)c(Cl)c1=O (single isomer, unassigned) [Example 50A] ... 12.6
[2H]C([2H])(Oc1cc(C)n(-c2c(C)cnc(-c3ccnc(C(C)(C)CO)n3)c2F)c(=O)c1Cl)c1ncc(F)cc1F (single isomer, unassigned) [Example 59B] ... 1
Cc1cnc(-c2ccc3c(n2)C(C)(O)CC3)cc1-n1c(C)cc(OCc2ncc(F)cc2F)c(Cl)c1=O (single isomer, unassigned) [Example 32A] ... 20

====

# reported IC50; entries follow
target under test: p38a/PRAK (Homo sapiens (Human))
protocol details: p38a/PRAK biochemical assay: activation of PRAK by p38, FITC-HSP27 peptide phosphorylation (IMAP FP)
cond: 10-point 1:3 dilution, top dose 300 μM; 60 pM active p38a, 1 nM inactive PRAK, 10 μM ATP, 2 h incubation; read-out: p38a/PRAK Enzyme pIC50 (converted)
measured metric: IC50 (µM)

Cc1cc(OCc2ncc(F)cc2F)c(Cl)c(=O)n1-c1cc(-c2ccnc(C(C)(C)O)n2)ncc1C1CC1 (single isomer, unassigned) [Example 40A] ... 15.8
Cc1cnc(-n2ccc(C(C)(C)O)n2)c(C)c1-n1c(C)cc(OCc2ncc(F)cc2F)c(Cl)c1=O (single isomer, unassigned) [Example 50A] ... 10
Cc1cnc(-c2cccc([C@](C)(O)CO)n2)cc1-n1c(C)cc(OCc2ncc(F)cc2F)c(Cl)c1=O (atropisomer, axis not shown) ... 20
Cc1cnc(-c2ccnc(C3(O)CCOCC3)n2)cc1-n1c(C)cc(OCc2ncc(F)cc2F)c(Cl)c1=O (single isomer, unassigned) [Example 39A] ... 12.6
Cc1cnc(-c2ccnc(C(C)(C)CO)n2)cc1-n1c(C)cc(OCc2ncc(F)cc2F)c(Cl)c1=O (single isomer, unassigned) [Example 4A] ... 3.98
Cc1cnc(-c2nc(C(C)(C)O)n(C)n2)cc1-n1c(C)cc(OCc2ncc(F)cc2F)c(Cl)c1=O (single isomer, unassigned) [Example 42A] ... 6.31
[2H]C([2H])(Oc1cc(C)n(-c2c(C)cnc(-c3ccnc(CC4(O)CC4)n3)c2F)c(=O)c1Cl)c1ncc(F)cc1F (single isomer, unassigned) [Example 61A] ... 158
Cc1cnc(-c2ccnc(C(C)(C)O)c2)cc1-n1c(C)cc(OCc2ncc(F)cc2F)c(Cl)c1=O (single isomer, unassigned) [Example 38A] ... 31.6
[2H]C([2H])(Oc1cc(C)n(-c2c(C)cnc(-c3ccnc(C(C)(C)O)c3F)c2F)c(=O)c1Cl)c1ncc(F)cc1F (single isomer, unassigned) [Example 65B] ... 79.4

====

target under test: p38a/PRAK (Homo sapiens (Human), UniProt Q16539)
Sequence (Q16539 whole entry): as above
protocol details: p38a/PRAK biochemical assay: activation of PRAK by p38, FITC-HSP27 peptide phosphorylation (IMAP FP)
cond: 10-point 1:3 dilution, top dose 300 μM; 60 pM active p38a, 1 nM inactive PRAK, 10 μM ATP, 2 h incubation; read-out: p38a/PRAK Enzyme pIC50 (converted)
# reported IC50; entries follow
measured metric: IC50 (µM)

Cc1sc(-c2ccnc(C(C)(C)O)n2)cc1-n1c(C)cc(OCc2ncc(F)cc2F)c(Cl)c1=O (single isomer, unassigned) [Example 33B] ... 50.1
Cc1cnc(-c2ccc3c(n2)[C@H](O)CC3)cc1-n1c(C)cc(OCc2ncc(F)cc2F)c(Cl)c1=O (single isomer, unassigned) [Example 18A] ... 25.1
Cc1cnc(-c2cccc([C@H](O)CO)n2)cc1-n1c(C)cc(OCc2ncc(F)cc2F)c(Cl)c1=O (atropisomer, axis not shown) [Example 16] ... 15.8
Cc1cnc(-c2cccc([C@@H](O)CO)n2)cc1-n1c(C)cc(OCc2ncc(F)cc2F)c(Cl)c1=O (single isomer, unassigned) [Example 34A] ... 10
[2H]C([2H])(Oc1cc(C)n(-c2c(C)cnc(-c3ccnc(C(O)(C([2H])([2H])[2H])C([2H])([2H])[2H])n3)c2F)c(=O)c1Cl)c1ncc(F)cc1F (single isomer, unassigned) [Example 67B] ... 31.6

====

target under test: p38a/MK2 (Homo sapiens (Human), UniProt P49137+Q16539)
protocol details: p38a/MK2 biochemical assay: activation of MK2 by p38, FITC-HSP27 peptide phosphorylation (IMAP FP)
cond: 10-point 1:3 dilution, top dose 1 μM; 60 pM active p38a, 1 nM inactive MK2, 10 μM ATP, 2 h incubation; read-out: p38a/MK2 (1 μM) Enzyme pIC50 (converted)
# reported IC50; entries follow
measured metric: IC50 (nM)

Cc1cnc(-c2ccnc(CC3(O)CC3)n2)cc1-n1c(C)cc(OCc2ncc(F)cc2F)c(Cl)c1=O (single isomer, unassigned) [Example 48A] ... 5.01
Cc1c(-n2c(C)cc(OCc3ncc(F)cc3F)c(Cl)c2=O)ccnc1-n1ccc(C(C)(C)O)n1 (single isomer, unassigned) [Example 52B] ... 15.8
Cc1cnc(-c2ccnc(C(O)C3CC3)n2)cc1-n1c(C)cc(OCc2ncc(F)cc2F)c(Cl)c1=O (single isomer, unassigned) [Example 35B] ... 15.8
Cc1cnc(-c2ccnc(C3CC(O)C3)n2)cc1-n1c(C)cc(OCc2ncc(F)cc2F)c(Cl)c1=O (single isomer, unassigned) [Example 26A] ... 12.6
Cc1cnc(-c2ccnc(C3(CO)CC3)n2)cc1-n1c(C)cc(OCc2ncc(F)cc2F)c(Cl)c1=O (single isomer, unassigned) [Example 21B] ... 3.16
[2H]C([2H])(Oc1cc(C)n(-c2c(C)cnc(-c3cccc(C(C)(C)O)[n+]3[O-])c2F)c(=O)c1Cl)c1ncc(F)cc1F (single isomer, unassigned) [Example 68B] ... 0.2

====

# reported log10 IC50; entries follow
target under test: p38a/MK2 (Homo sapiens (Human), UniProt P49137+Q16539)
protocol details: p38a/MK2 biochemical assay: activation of MK2 by p38, FITC-HSP27 peptide phosphorylation (IMAP FP)
cond: 10-point 1:3 dilution, top dose 1 μM; 60 pM active p38a, 1 nM inactive MK2, 10 μM ATP, 2 h incubation; read-out: p38a/MK2 (1 μM) Enzyme pIC50 (converted)
measured metric: log10 IC50 (log10 of the value in nM)

Cc1cnc(-n2ccc(C(C)(C)O)n2)cc1-n1c(C)cc(OCc2ncc(F)cc2F)c(Cl)c1=O (single isomer, unassigned) [Example 9A] ... 0.60
[2H]C([2H])(Oc1cc(C)n(-c2c(C)cnc(-c3ccnc(C(C)(C)O)n3)c2F)c(=O)c1Cl)c1ncc(F)cc1F (single isomer, unassigned) [Example 57A] ... 0.10
Cc1cnc(-c2ccnc(C3(O)CC3)n2)cc1-n1c(C)cc(OCc2ncc(F)cc2F)c(Cl)c1=O (single isomer, unassigned) [Example 3A] ... 1.00
Cc1cnc(-n2ccc(CC(C)(C)O)n2)cc1-n1c(C)cc(OCc2ncc(F)cc2F)c(Cl)c1=O (single isomer, unassigned) [Example 46A] ... 1.20
Cc1cc(OCc2ncc(F)cc2F)c(Cl)c(=O)n1-c1cc(-c2ccnc(C(C)(C)O)n2)ncc1C1CC1 (single isomer, unassigned) [Example 40A] ... 2.10

====

target under test: p38a/MK2 (Homo sapiens (Human), UniProt P49137+Q16539)
protocol details: p38a/MK2 biochemical assay: activation of MK2 by p38, FITC-HSP27 peptide phosphorylation (IMAP FP)
cond: 10-point 1:3 dilution, top dose 1 μM; 60 pM active p38a, 1 nM inactive MK2, 10 μM ATP, 2 h incubation; read-out: p38a/MK2 (1 μM) Enzyme pIC50 (converted)
measured metric: IC50 (nM)

[2H]C([2H])([2H])C(O)(c1nccc(-c2ncc(C)c(-n3c(C)cc(OCc4ncc(F)cc4F)c(Cl)c3=O)c2F)n1)C([2H])([2H])[2H] (single isomer, unassigned) [Example 66B] ... 6.31
Cc1cnc(-c2cncc(C(C)(C)O)n2)cc1-n1c(C)cc(OCc2ncc(F)cc2F)c(Cl)c1=O (single isomer, unassigned) [Example 51A] ... 79.4
Cc1cnc(-c2ccnc(C(C)(C)CO)n2)cc1-n1c(C)cc(OCc2ncc(F)cc2F)c(Cl)c1=O (single isomer, unassigned) ... 1.58
Cc1cnc(-c2cccc(C(C)(C)O)[n+]2[O-])c(F)c1-n1c(C)cc(OCc2ncc(F)cc2F)c(Cl)c1=O (single isomer, unassigned) [Example 62A] ... 1.58
Cc1cnc(-c2ccnc(N(C)CCO)n2)cc1-n1c(C)cc(OCc2ncc(F)cc2F)c(Cl)c1=O (single isomer, unassigned) [Example 43A] ... 12.6
